A collection of molecules and their measured cytotoxicity at 70.5 h
- ASSAY PROCEDURE: Human HepG2 cell viability assay in 384 well format
- Assay type: toxicity, cell-based
- Set-up: dose 125 nL, time 70.5 hour; concentration not given beside the values
- REPORTED CONDITIONS: HepG2 cells, read-out: Inhibition
Numbers only; they are read as %.

Worked set:
1) Cc1ccc(C(=O)N2C[C@H]3CCC[C@@]3(COCc3ccncc3)C2)cn1 | -7.42
2) CNc1ncc(C(=O)N2CCC(CCc3ccccc3)CC2)cn1 | 13.7
3) CCN1CCCC(C)(C(=O)NCCc2n[nH]c(=O)[nH]2)C1 (stereo unspecified) | -3.84
4) CC1CN(Cc2nnsc2Cl)CCN1c1nccs1 (stereo unspecified) | -19.1
5) Nc1cc(CC2COc3ccccc3C2)ccn1 (stereo unspecified) | 11.8

Shifting focus to the molecule that follows.
-- ask Would you kindly share the measured cytotoxicity at 70.5 h for COc1nc2c(cc1C(=O)NCc1noc(Cc3cccs3)n1)CCC2 ?
-- reply -3.41

---

- ASSAY PROCEDURE: Human HepG2 cell viability assay in 384 well format
- Format: toxicity, cell-based
- Design: dose 125 nL, time 70.5 hour; concentration not given beside the values
- REPORTED CONDITIONS: HepG2 cells, read-out: Inhibition
A collection of compounds and their measured cytotoxicity at 70.5 h
Give the number first and the unit second.

1) COc1c(CNCc2ccc(Cn3cccn3)cc2)c(C)nn1C | 3.44%

-- ask Would you kindly share the measured cytotoxicity at 70.5 h for NC(=O)c1cn[nH]c1C1CCCN1C(=O)c1ccccn1 (configuration not stated) ?
-- reply -4.23%

---

- ASSAY PROCEDURE: Human HepG2 cell viability assay in 384 well format
- Assay type: toxicity, cell-based
- Parameters: dose 125 nL, time 70.5 hour; concentration not given beside the values
- REPORTED CONDITIONS: HepG2 cells, read-out: Inhibition
A collection of molecules and their measured cytotoxicity at 70.5 h
Numbers only; they are read as %.

Worked set:
1. Cc1cccc(Nc2nccnc2C2CCCN2CC(N)=O)n1 (configuration not stated) | -2.88
2. CCn1cc(CNCC(c2ccc(C)s2)N2CCOCC2)cn1 (configuration not stated) | -7.64

-- ask Would you kindly share the measured cytotoxicity at 70.5 h for O=C(Cc1cccc(F)c1F)NS(=O)(=O)c1ccc(Cl)cc1F ?
-- reply 12.1

-- ask Would you kindly share the measured cytotoxicity at 70.5 h for CC1(C)CN(C(=O)CCc2nc(-c3ccncc3)no2)CCO1 ?
-- reply -12

-- ask Would you kindly share the measured cytotoxicity at 70.5 h for COCc1ccc(C(=O)N2CC[C@@](O)(COC)C(C)(C)C2)o1 ?
-- reply -6.95

-- ask Would you kindly share the measured cytotoxicity at 70.5 h for Cc1ccc(C(=O)N2CCn3cnc(COCC4CC4)c3C2)cn1 ?
-- reply -5.4

-- ask Would you kindly share the measured cytotoxicity at 70.5 h for Cc1cccc(-c2c[nH]c(C3CCCN3)n2)c1 (configuration not stated) ?
-- reply -7.37

-- ask Would you kindly share the measured cytotoxicity at 70.5 h for C=C(C)CN1CCN(CCC(=O)Nc2ccccc2C(N)=O)CC1 ?
-- reply -10.8

-- ask Would you kindly share the measured cytotoxicity at 70.5 h for Cc1cc(C)c2c(N3CCN(Cc4ncccc4C)CC3)ncnc2n1 ?
-- reply -8.35

-- ask Would you kindly share the measured cytotoxicity at 70.5 h for COC(=O)c1sccc1CN1CCN(C(=O)c2ccc(C)o2)CC1 ?
-- reply -8.65

-- ask Would you kindly share the measured cytotoxicity at 70.5 h for O=C1CC[C@]2(CC[C@@H](NC3CCOC3)CC2)N1Cc1ccccc1 (some centres not stated) ?
-- reply -1.97

-- ask Would you kindly share the measured cytotoxicity at 70.5 h for COc1ccc(-n2nc(C)c(C(C)=O)c2C)cc1CO ?
-- reply 0.889

---

A collection of molecules and their measured cytotoxicity at 70.5 h
- ASSAY PROCEDURE: Human HepG2 cell viability assay in 384 well format
- Assay type: toxicity, cell-based
- Set-up: dose 125 nL, time 70.5 hour; concentration not given beside the values
- REPORTED CONDITIONS: HepG2 cells, read-out: Inhibition
Numbers only; they are read as %.

1. CSc1ncc(C(=O)N2CCC(O)(CN3CCOCC3)C(C)(C)C2)cn1 (stereo unspecified) | -0.923

-- ask Would you kindly share the measured cytotoxicity at 70.5 h for COc1c(Br)c(C(=O)NC2CC2)nn1C ?
-- reply 0.124

-- ask Would you kindly share the measured cytotoxicity at 70.5 h for O=C(Cc1ccco1)N1C[C@@H]2COC[C@]2(COCC2CCOCC2)C1 ?
-- reply -7.33

-- ask Would you kindly share the measured cytotoxicity at 70.5 h for CCN(CC)C(=O)CCc1c(C)nc2cc(O)nn2c1C ?
-- reply -3.01

-- ask Would you kindly share the measured cytotoxicity at 70.5 h for Cn1cc(CNCCC(=O)NCc2ccccc2)c(-c2cccnc2)n1 ?
-- reply 2.26

-- ask Would you kindly share the measured cytotoxicity at 70.5 h for Cc1ccc(CNC(=O)Nc2nncs2)n1C ?
-- reply -7.51

---

- ASSAY PROCEDURE: Human HepG2 cell viability assay in 384 well format
- Assay type: toxicity, cell-based
- Set-up: dose 125 nL, time 70.5 hour; concentration not given beside the values
- REPORTED CONDITIONS: HepG2 cells, read-out: Inhibition
VALUE KIND: cytotoxicity at 70.5 h (%)
Numbers only; they are read as %.

1. Cc1cccc(N2CCN(c3ccn4c(=O)[nH]nc4n3)CC2)c1C | 3.43
2. COCc1noc(CCNc2nc(CC3CC3)nc3c2CCNCC3)n1 | 8.9
3. CS(=O)(=O)NC[C@]12COC[C@H]1CN(CC1CCCC1)C2 | -12.8
4. CSCc1nc(CCNC(=O)C2CCCN(C(C)=O)C2)cs1 (stereo unspecified) | -2.37
5. CC(C)n1[nH]c(=O)c2c1NC(=O)CC2c1cccc(Br)c1 (stereo unspecified) | -12.9

Shifting focus to the molecule that follows.
-- ask Would you kindly share the measured cytotoxicity at 70.5 h for O=C(NCCn1nc2ccccn2c1=O)c1cc(C2CC2)[nH]n1 ?
-- reply 2.27

---

- ASSAY PROCEDURE: Human HepG2 cell viability assay in 384 well format
- Format: toxicity, cell-based
- Set-up: dose 125 nL, time 70.5 hour; concentration not given beside the values
- REPORTED CONDITIONS: HepG2 cells, read-out: Inhibition
VALUE KIND: cytotoxicity at 70.5 h (%)
Numbers only; they are read as %.

Worked set:
1. COCCCC(=O)N(C)c1ccc(F)c(Cl)c1 | -8.74
2. CCc1ccc(-n2nnc(C(=O)O)c2-c2ccccn2)cc1 | -26.2
3. Cc1cc(CS(=O)(=O)NC2CCCCC2)on1 | -15.3
4. CNC(=O)C1Cn2ccnc2C2(CCN(C(=O)c3ccccn3)CC2)O1 (stereo not drawn) | -2.1
5. O=C(O)CN1CCCC2(CCN2Cc2cccc(F)c2)C1 (stereo not drawn) | -1.42
6. COC(=O)C1CN(Cc2cc(F)ccc2Br)CCO1 (stereo not drawn) | -3.09
7. O=C(c1ccco1)N1CCO[C@@H]2CNC[C@@H]21 | -6.25
8. CN(C)S(=O)(=O)N1CC[C@]2(C[C@H](OCc3ccncc3)CO2)C1 | -0.865

-- ask Would you kindly share the measured cytotoxicity at 70.5 h for Cc1cc(-c2cnc(N3CCC(O)CC3)nc2-c2cccnc2C)on1 ?
-- reply 8.43

-- ask Would you kindly share the measured cytotoxicity at 70.5 h for CC(C)n1cc(-c2c(C#N)c(N)nc3c2COCC3)cn1 ?
-- reply 10.2

-- ask Would you kindly share the measured cytotoxicity at 70.5 h for COCCN1CCC2(CC1)CC(NC(=O)C1CC1)c1ccccc1O2 (stereo not drawn) ?
-- reply -5.15

-- ask Would you kindly share the measured cytotoxicity at 70.5 h for CN(C)Cc1cn(-c2ccccc2C(=O)NCC2CCCCN2C)cn1 (stereo not drawn) ?
-- reply 25.3

-- ask Would you kindly share the measured cytotoxicity at 70.5 h for CC(C)(C)OC(=O)NCC1CCN(C(=O)c2ccccc2O)C1 (stereo not drawn) ?
-- reply -0.832

-- ask Would you kindly share the measured cytotoxicity at 70.5 h for OC1(CN2CCC(Oc3cccc(C(F)(F)F)c3)CC2)CCNC1 (stereo not drawn) ?
-- reply -7.31

-- ask Would you kindly share the measured cytotoxicity at 70.5 h for Cc1nc(NC(=O)N(C)Cc2ccsc2)nn1C ?
-- reply -7.49

-- ask Would you kindly share the measured cytotoxicity at 70.5 h for CC(C)(O)CN1CCN(C(=O)c2ccc(Cl)c3cccnc23)CC1 ?
-- reply 26

-- ask Would you kindly share the measured cytotoxicity at 70.5 h for CCN1CCn2c(C)cnc2C12CCN(C(=O)NCC(C)C)CC2 ?
-- reply -11.3

-- ask Would you kindly share the measured cytotoxicity at 70.5 h for Cc1ccc([C@@H]2CN(C(=O)c3ccccc3C)C[C@H]2N(C)C)cc1 ?
-- reply 2.46

-- ask Would you kindly share the measured cytotoxicity at 70.5 h for CNC(=O)c1ccc(CNC(=O)NCCN(C)C2CCCC2)cc1 ?
-- reply -1.36

-- ask Would you kindly share the measured cytotoxicity at 70.5 h for CCC(=O)N1CCN(CCn2cccn2)c2ncccc2C1 ?
-- reply 12.9

-- ask Would you kindly share the measured cytotoxicity at 70.5 h for CCn1nc(C)c(CNC(=O)C2COc3ccccc3C2)c1C (stereo not drawn) ?
-- reply -8.01
